Assay: Metabolic stability: dealkylation to compound A in in vitro incubations (HPLC)
Assay type: in vitro ADME
Conditions: human, liver 9000 g fraction; incubation time 1 h, 37° C.; R1-dealkylated metabolite; read-out: relative content of compound A
Where a name gives a salt, the structure may show the parent alone.
Metric Name: metabolised at 1 h (%)
Return type: number; implicit unit %.

CC1(C)CN(c2ncc(C(=O)N(CCF)c3cccc(C(F)(F)F)c3)c(N)n2)C(=O)N1
4

Using the record for CCN(C(=O)c1cnc(N2CC(C)(C)NC2=O)nc1N)c1cccc(C(F)(F)F)c1 [Compound B, hydrochloride, reference compound] , state its measured metabolised at 1 h.
8
